- System: Ehrlich
- test_name: Cytotoxicity against mouse Ehrlich Ascites carcinoma assessed as non viable cells at 100 umol/mL after 2 hrs by trypan blue exclusion assay
- Format: functional
Decide by Activity: equal to or exceeding 80% means criterion met, less means criterion not met.

Task item: I'd appreciate it if you could say whether `N#Cc1c(N)nn2cnc3c(c(-c4ccccc4)cn3-c3ccc(S(N)(=O)=O)cc3)c12` has Activity at least equal to 80%.
Reply: criterion not met

Task item: Answer whether Activity of `NS(=O)(=O)c1ccc(-n2cc(-c3ccccc3)c3c2ncn2ncnc32)cc1` is greater than or equal to 80%.
Reply: criterion not met

Task item: Does the compound `N=c1c2c(-c3ccccc3)cn(-c3ccc(S(N)(=O)=O)cc3)c2ncn1NC(=S)Nc1ccccc1` have recorded Activity that is 80% or more?
Reply: criterion met

Task item: Confirm if Activity reported for the compound `COc1cccc2c1C(=O)c1c(O)c3c(c(O)c1C2=O)C[C@@](O)(C(=O)CO)C[C@@H]3O[C@H]1C[C@H](N)[C@H](O)[C@H](C)O1` is 80% or above.
Reply: criterion not met

Task item: Determine whether measured Activity meets or exceeds 80% for `N#Cc1c(-c2ccccc2)cn(-c2ccc(S(N)(=O)=O)cc2)c1N`
Reply: criterion met

Task item: Reported Activity reaches at least 80% for `NS(=O)(=O)c1ccc(-n2cc(-c3ccccc3)c3c2ncn2nc(-c4ccccc4)nc32)cc1` ?
Reply: criterion not met

###

- System: Ehrlich
- test_name: Cytotoxicity against mouse Ehrlich Ascites carcinoma assessed as non viable cells at 75 umol/mL after 2 hrs by trypan blue exclusion assay
- Format: functional
Provide the recorded Activity for the entries that follow.
Give bare numbers, in %.

# batch: return Activity for each of the 4 compounds below
1. N#Cc1c(N)nn2cnc3c(c(-c4ccccc4)cn3-c3ccc(S(N)(=O)=O)cc3)c12
2. N=c1c2c(-c3ccccc3)cn(-c3ccc(S(N)(=O)=O)cc3)c2ncn1NC(=S)Nc1ccccc1
3. NS(=O)(=O)c1ccc(-n2cc(-c3ccccc3)c3c2ncn2nc(-c4ccccc4)nc32)cc1
4. N#Cc1c(-c2ccccc2)cn(-c2ccc(S(N)(=O)=O)cc2)c1N

Reply:
[0, 80, 0, 100]

###

- Tested on: Ehrlich
- test_name: Cytotoxicity against mouse Ehrlich Ascites carcinoma assessed as non viable cells at 25 umol/mL after 2 hrs by trypan blue exclusion assay
- Type: functional
observation_type: Activity (%)
Give bare numbers, in %.

Check out these entries, answers already filled in.
[[record]]
compound_smiles = "COc1cccc2c1C(=O)c1c(O)c3c(c(O)c1C2=O)C[C@@](O)(C(=O)CO)C[C@@H]3O[C@H]1C[C@H](N)[C@H](O)[C@H](C)O1"
units_label = "%"
endpoint_result = 20

[[record]]
compound_smiles = "CC(=O)NS(=O)(=O)c1ccc(-n2cc(-c3ccccc3)c3c2ncn2nc(C)nc32)cc1"
units_label = "%"
endpoint_result = 0

[[record]]
compound_smiles = "NS(=O)(=O)c1ccc(-n2cc(-c3ccccc3)c3c2ncn2nc(S)nc32)cc1"
units_label = "%"
endpoint_result = 0


# batch: return Activity for each of the 5 molecules below
1. NS(=O)(=O)c1ccc(-n2cc(-c3ccccc3)c3c2ncn2ncnc32)cc1
2. N=c1c2c(-c3ccccc3)cn(-c3ccc(S(N)(=O)=O)cc3)c2ncn1NC(=S)Nc1ccccc1
3. N#Cc1c(N)nn2cnc3c(c(-c4ccccc4)cn3-c3ccc(S(N)(=O)=O)cc3)c12
4. N#Cc1c(-c2ccccc2)cn(-c2ccc(S(N)(=O)=O)cc2)c1N
5. NS(=O)(=O)c1ccc(-n2cc(-c3ccccc3)c3c2ncn2nc(-c4ccccc4)nc32)cc1

Reply:
1. 0
2. 50
3. 0
4. 40
5. 0

Task item: Lab note: need Activity for `N#CCc1nc2c3c(-c4ccccc4)cn(-c4ccc(S(N)(=O)=O)cc4)c3ncn2n1` on Ehrlich, anyone have it?
Reply: 0
